Kindly supply the reported MIC Enterococcus faecalis (GC 4554) values for the records listed here.
- Tested on: Enterococcus sp.
- experiment.description: In vitro antibacterial evaluation: minimum inhibitory concentration (MIC), broth dilution method
- Format: cell-based
- experimental.conditions: Enterococcus faecalis (GC 4554); broth dilution, 18 hours at 35° C.
- Text: […]
Numbered stars: 1 amine (or outer) side, 2 acyl side, 3 side chain; on linkers, the order of the positions; unused ones are H or OH. Square brackets hold non-standard residues; d marks the D form. Peptide text beside a SMILES is read from it. ξ: configuration not given here. X1 = N=C1NCC(C(O)C(N[*:1])C(=O)[*:2])N1C1OC(CO)C(O)C(O)C1O; ξEnduracididine(βξ-OH,4'ξ) = N=C1NCC(C(O)C(N)C(=O)O)N1; Cha = N[CH](CC1CCCCC1)C(=O)O
Answers are plain numbers, in µg/mL.

compound	experimental.endpoint	units	val
N=C1NCC(C(O)C2NC(=O)C(CC3CCCCC3)NC(=O)C(CC3CCCCC3)NC(=O)CNC(=O)C(CO)NC(=O)C(C(O)C3CNC(=N)N3C3OC(CO)C(O)C(O)C3O)NC2=O)N1 (stereo not drawn) [Example 52] (cyclo(G[Cha][Cha][ξEnduracididine(βξ-OH,4'ξ)][X1]S); configuration not given here)	MIC Enterococcus faecalis (GC 4554)	µg/mL	64

query: Name the recorded MIC Enterococcus faecalis (GC 4554) for CC(c1ccccc1)C1NC(=O)CNC(=O)C(CO)NC(=O)C(C(O)C2CNC(=N)N2C2OC(CO)C(O)C(O)C2O)NC(=O)C(C(O)C2CNC(=N)N2)NC(=O)C(Cc2ccc3oc(SCc4ccc(-c5ccccc5)cc4)nc3c2)NC1=O (stereo not drawn) .
result: 64

###

Please go through the items and note down their MIC Staphylococcus haemolyticus (GC 4546).
- System: Staphylococcus sp.
- experiment.description: In vitro antibacterial evaluation: minimum inhibitory concentration (MIC), broth dilution method
- Format: cell-based
- experimental.conditions: broth dilution, 18 hours at 35° C.
Numbers only, in µg/mL.

Check out these entries, answers already filled in.
compound	val
CC(c1ccccc1)C1NC(=O)CNC(=O)C(CO)NC(=O)C(C(O)C2CNC(=N)N2C2OC(CO)C(O)C(O)C2O)NC(=O)C(C(O)C2CNC(=N)N2)NC(=O)C(Cc2ccc3oc(SCC(=O)c4ccccc4)nc3c2)NC1=O (stereo not shown) [Example 48]	8
CC(c1ccccc1)C1NC(=O)CNC(=O)C(CO)NC(=O)C(C(O)C2CN(Cc3ccccc3)C(=NCc3ccccc3)N2C2OC(CO)C(O)C(O)C2O)NC(=O)C(C(O)C2CN(Cc3ccccc3)C(=NCc3ccccc3)N2Cc2ccccc2)NC(=O)C(Cc2ccc(OC3OC(CO)C(OC4OC5COC6(OC5C(O)C4O)C4CC5CC(C4)CC6C5)C(O)C3O)cc2)NC1=O (stereo not shown) [Example 79]	4
CC(c1ccccc1)C1NC(=O)CNC(=O)C(CO)NC(=O)C(C(O)C2CNC(=N)N2C2OC(CO)C(O)C(O)C2O)NC(=O)C(C(O)C2CNC(=N)N2)NC(=O)C(Cc2ccc3oc(-c4ccoc4)nc3c2)NC1=O (stereo not shown) [Example 38]	16

Shifting focus to the compound that follows.
query: Any idea what its MIC Staphylococcus haemolyticus (GC 4546) is? The compound is CC(c1ccccc1)C1NC(=O)CNC(=O)C(CO)NC(=O)C(C(O)C2CNC(=N)N2C2OC(CO)C(O)C(O)C2O)NC(=O)C(C(O)C2CNC(=N)N2)NC(=O)C(Cc2ccc3oc(-c4ccc(OCc5ccccc5)cc4)nc3c2)NC1=O (stereo not shown) [Example 31]
result: 8

###

Give measured MIC Enterococcus avium (GC 4558) for each item. Keep answers brief.
- System: Enterococcus sp.
- experiment.description: In vitro antibacterial evaluation: minimum inhibitory concentration (MIC), broth dilution method
- Assay type: cell-based
- experimental.conditions: Enterococcus avium (GC 4558); broth dilution, 18 hours at 35° C.
Numbered stars: 1 amine (or outer) side, 2 acyl side, 3 side chain; on linkers, the order of the positions; unused ones are H or OH. Square brackets hold non-standard residues; d marks the D form. Peptide text beside a SMILES is read from it. ξ: configuration not given here. X1 = N=C1NCC(C(O)C(N[*:1])C(=O)[*:2])N1C1OC(CO)C(O)C(O)C1O; ξEnduracididine(βξ-OH,4'ξ) = N=C1NCC(C(O)C(N)C(=O)O)N1; Cha = N[CH](CC1CCCCC1)C(=O)O

Illustrative cases are given below, each with its answer.
molecule	MIC Enterococcus avium (GC 4558)
N=C1NCC(C(O)C2NC(=O)C(CC3CCCCC3)NC(=O)C(CC3CCCCC3)NC(=O)CNC(=O)C(CO)NC(=O)C(C(O)C3CNC(=N)N3C3OC(CO)C(O)C(O)C3O)NC2=O)N1 (stereo not drawn) [Example 52] (cyclo(G[Cha][Cha][ξEnduracididine(βξ-OH,4'ξ)][X1]S); configuration not given here)	32 µg/mL
CC(c1ccccc1)C1NC(=O)CNC(=O)C(CO)NC(=O)C(CC2CNC(=N)N2C2OC(CO)C(O)C(O)C2O)NC(=O)C(CC2CNC(=N)N2)NC(=O)C(Cc2ccc3oc(-c4ccc5c(c4)Cc4ccccc4-5)nc3c2)NC1=O (stereo not drawn)	4 µg/mL
CC(c1ccccc1)C1NC(=O)CNC(=O)C(CO)NC(=O)C(C(O)C2CNC(=N)N2C2OC(CO)C(O)C(O)C2O)NC(=O)C(C(O)C2CNC(=N)N2)NC(=O)C(Cc2ccc(O)c(NC(=S)Nc3cc(C(F)(F)F)cc(C(F)(F)F)c3)c2)NC1=O (stereo not drawn)	64 µg/mL
CC(c1ccccc1)C1NC(=O)CNC(=O)C(CO)NC(=O)C(C(O)C2CNC(=N)N2C2OC(CO)C(O)C(O)C2O)NC(=O)C(C(O)C2CNC(=N)N2)NC(=O)C(Cc2ccc(OC3OC(CO)C(OC4OC5COC6(OC5C(O)C4O)C4CC5CC(C4)CC6C5)C(O)C3O)cc2)NC1=O (stereo not drawn)	1 to 2 µg/mL
CC(c1ccccc1)C1NC(=O)CNC(=O)C(CO)NC(=O)C(C(O)C2CNC(=N)N2C2OC(CO)C(O)C(O)C2O)NC(=O)C(C(O)C2CNC(=N)N2)NC(=O)C(Cc2ccc3oc(-c4ccc(C(C)(C)C)cc4)nc3c2)NC1=O (stereo not drawn)	4 µg/mL

Continue with the next molecule.
query: // returns reported MIC Enterococcus avium (GC 4558) for input CC(c1ccccc1)C1NC(=O)CNC(=O)C(CO)NC(=O)C(C(O)C2CNC(=N)N2C2OC(CO)C(O)C(O)C2O)NC(=O)C(C(O)C2CNC(=N)N2)NC(=O)C(Cc2ccc3oc(-c4ccc(OCc5ccccc5)cc4)nc3c2)NC1=O (stereo not drawn)
result: 8 µg/mL

###

- Test system: Streptococcus sp.
- experiment.description: In vitro antibacterial evaluation: minimum inhibitory concentration (MIC), broth dilution method
- Type: cell-based
- experimental.conditions: broth dilution, inoculum 5×10^5 CFU/mL, 18 hours at 35° C.
experimental.endpoint: MIC Streptococcus pyogenes (GC 4563)

# example entries with known answers
molecule	test.target	val
CC(c1ccccc1)C1NC(=O)CNC(=O)C(CO)NC(=O)C(C(O)C2CN(c3ncccn3)C(=N)N2C2OC(CO)C(O)C(O)C2O)NC(=O)C(C(O)C2CNC(=Nc3ncccn3)N2)NC(=O)C(Cc2ccc(OC3OC(CO)C(OC4OC5COC6(OC5C(O)C4O)C4CC5CC(C4)CC6C5)C(O)C3O)cc2)NC1=O (stereo not shown) [Example 228]	Streptococcus sp.	8 mg/L
COc1ccc(COCC2OC(OC3C(CO)OC(Oc4ccc(CC5NC(=O)C(C(C)c6ccccc6)NC(=O)CNC(=O)C(CO)NC(=O)C(C(O)C6CNC(=N)N6C6OC(CO)C(O)C(O)C6O)NC(=O)C(C(O)C6CNC(=N)N6)NC5=O)cc4)C(O)C3O)C(O)C(O)C2O)cc1F (stereo not shown) [Example 237]	Streptococcus sp.	1 mg/L
COc1ccc(COC2C(CO)OC(OC3C(CO)OC(Oc4ccc(CC5NC(=O)C(C(C)c6ccccc6)NC(=O)CNC(=O)C(CO)NC(=O)C(C(O)C6CNC(=N)N6C6OC(CO)C(O)C(O)C6O)NC(=O)C(C(O)C6CNC(=N)N6)NC5=O)cc4)C(O)C3O)C(O)C2O)cc1OCc1ccccc1 (stereo not shown) [Example 239a]	Streptococcus sp.	2 mg/L

Now for another entry.
query: Quick check: MIC Streptococcus pyogenes (GC 4563) of CC(C)=CCCC(C)=CCCC(C)=CCOc1cccc(C2OCC3OC(OC4C(CO)OC(Oc5ccc(CC6NC(=O)C(C(C)c7ccccc7)NC(=O)CNC(=O)C(CO)NC(=O)C(C(O)C7CNC(=N)N7C7OC(CO)C(O)C(O)C7O)NC(=O)C(C(O)C7CNC(=N)N7)NC6=O)cc5)C(O)C4O)C(O)C(O)C3O2)c1 (stereo not shown) [Example 185] ?
result: 16 mg/L

###

So I've got a bunch of compounds here, and I need their MIC Staphylococcus aureus (GC 4542) values.
- Tested on: Staphylococcus sp.
- experiment.description: In vitro antibacterial evaluation: minimum inhibitory concentration (MIC), broth dilution method
- Assay type: cell-based
- experimental.conditions: broth dilution, 5×10^5 CFU/mL, 18 hours at 35° C.
Numbers only, in µg/mL.

compound	MIC Staphylococcus aureus (GC 4542) [µg/mL]
CC(c1ccccc1)C1NC(=O)CNC(=O)C(CO)NC(=O)C(C(O)C2CNC(=N)N2C2OC(CO)C(O)C(O)C2O)NC(=O)C(C(O)C2CNC(=N)N2)NC(=O)C(Cc2ccc(OC3OC(CO)C(OC4OC5COC(c6cc7c(cc6Cl)OCO7)OC5C(O)C4O)C(O)C3O)cc2)NC1=O (stereo not shown)	1
COc1cc(OC)cc(C2OCC3OC(OC4C(CO)OC(Oc5ccc(CC6NC(=O)C(C(C)c7ccccc7)NC(=O)CNC(=O)C(CO)NC(=O)C(C(O)C7CNC(=N)N7C7OC(CO)C(O)C(O)C7O)NC(=O)C(C(O)C7CNC(=N)N7)NC6=O)cc5)C(O)C4O)C(O)C(O)C3O2)c1 (stereo not shown)	2
Cc1cc(C2OCC3OC(OC4C(CO)OC(Oc5ccc(CC6NC(=O)C(C(C)c7ccccc7)NC(=O)CNC(=O)C(CO)NC(=O)C(C(O)C7CNC(=N)N7C7OC(CO)C(O)C(O)C7O)NC(=O)C(C(O)C7CNC(=N)N7)NC6=O)cc5)C(O)C4O)C(O)C(O)C3O2)ccc1[N+](=O)[O-] (stereo not shown)	8

Please go through the list and note MIC Staphylococcus aureus (GC 4542) for each compound.
1. COc1cccc(C2OC3C(OC4C(CO)OC(Oc5ccc(CC6NC(=O)C(C(C)c7ccccc7)NC(=O)CNC(=O)C(CO)NC(=O)C(C(O)C7CNC(=N)N7C7OC(CO)C(O)C(O)C7O)NC(=O)C(C(O)C7CNC(=N)N7)NC6=O)cc5)C(O)C4O)OC(CO)C(O)C3O2)c1 (single isomer, unassigned) [Example 137a]
2. CC(C)=CCCC(C)=CCOc1ccc(C2OCC3OC(OC4C(CO)OC(Oc5ccc(CC6NC(=O)C(C(C)c7ccccc7)NC(=O)CNC(=O)C(CO)NC(=O)C(C(O)C7CNC(=N)N7C7OC(CO)C(O)C(O)C7O)NC(=O)C(C(O)C7CNC(=N)N7)NC6=O)cc5)C(O)C4O)C(O)C(O)C3O2)cc1 (stereo not shown)

result:
1. 32
2. 4

query: MIC Staphylococcus aureus (GC 4542) for CCCc1ccc(C2OCC3OC(OC4C(CO)OC(Oc5ccc(CC6NC(=O)C(C(C)c7ccccc7)NC(=O)CNC(=O)C(CO)NC(=O)C(C(O)C7CNC(=N)N7C7OC(CO)C(O)C(O)C7O)NC(=O)C(C(O)C7CNC(=N)N7)NC6=O)cc5)C(O)C4O)C(O)C(O)C3O2)cc1 (stereo not shown) ?
result: 1
